# Test Method Notes: Surface tension and critical micelle concentration of aqueous surfactant solutions
# Type: physicochemical
# Experimental Setup: Table 5; deionized water
Measured Parameter: CMC (ppm)
Report only the number, with the unit ppm understood.

Use these answered entries as a reference point.
[
  {
    "Compound": "O=C(O)C(F)(C(F)(F)F)C(F)(F)C(F)(F)C(F)(F)C(F)(F)C(F)(F)C(F)(F)F (centres unmarked) [Example M25, C6 F13 CF(CF3)COO^- Na^+]",
    "CMC (ppm)": 10000
  },
  {
    "Compound": "O=C(O)C(F)(C(F)(F)F)C(F)(F)C(F)(F)C(F)(F)C(F)(F)C(F)(F)C(F)(F)C(F)(F)F (centres unmarked) [Example M23, C7 F15 CF(CF3)COO^- K^+]",
    "CMC (ppm)": 2500
  }
]

Q. Can you look up the measured CMC of O=C(O)C(F)(C(F)(F)F)C(F)(F)C(F)(F)C(F)(F)C(F)(F)C(F)(F)C(F)(F)C(F)(F)F (centres unmarked) [Example M14, C7 F15 CF(CF3)COO^- H4 N^+] for me?
A. 2500

Q. Look up CMC: O=C(O)C(F)(F)C(F)(F)C(F)(F)C(F)(F)C(F)(F)C(F)(F)C(F)(F)F [FC-143, C7 F15 COO^- H4 N^+]
A. 8000

Q. CMC for O=C(O)C(F)(C(F)(F)F)C(F)(F)C(F)(F)C(F)(F)C(F)(F)C(F)(F)C(F)(F)C(F)(F)C(F)(F)C(F)(F)C(F)(F)F (centres unmarked) [Example M18, C10 F21 CF(CF3)COO^- H4 N^+] ?
A. 600

Q. Field request: CMC | item: O=C(O)C(F)(C(F)(F)F)C(F)(F)C(F)(F)C(F)(F)C(F)(F)C(F)(F)C(F)(F)C(F)(F)C(F)(F)F (centres unmarked) [Example M17, C8 F17 CF(CF3)COO^- H4 N^+]
A. 2300

Q. Endpoint output: CMC of O=C(O)C(F)(C(F)(F)F)C(F)(F)C(F)(F)C(F)(F)C(F)(F)C(F)(F)C(F)(F)C(F)(F)F (centres unmarked) [Example M26, C7 F15 CF(CF3)COO^- Na^+] . Value?
A. 3000

Q. # query: CMC of entry O=C(O)C(F)(C(F)(F)F)C(F)(F)C(F)(F)C(F)(F)C(F)(F)C(F)(F)C(F)(F)C(F)(F)F (centres unmarked) [Example M20, C7 F15 CF(CF3)COO^- H3 N^+ C2 H4 OH]
A. 500

###

# Test Method Notes: Bacterial sludge contact test
# Experimental Setup: Day 28, no sludge
Measured Parameter: percent perfluoroolefin/perfluoromonohydride formed at 672 h, 1000 µM (%)
# value in %; strip the unit string

Q. Look up percent perfluoroolefin/perfluoromonohydride formed at 672 h, 1000 µM for this compound: O=C(O)C(F)(C(F)(F)F)C(F)(F)C(F)(F)C(F)(F)C(F)(F)C(F)(F)C(F)(F)F (stereo not shown)
A. 32

###

Recorded log10 of CMC for the following compounds
# Test Method Notes: Surface tension and critical micelle concentration of aqueous surfactant solutions
# Format: physicochemical
# Experimental Setup: Table 3; deionized water
Give log10 of CMC, with CMC taken in ppm.

Q. I would be grateful if you could share the reported log10 of CMC for C[N+](C)([O-])CCCNC(=O)C(F)(C(F)(F)F)C(F)(F)C(F)(F)C(F)(F)C(F)(F)C(F)(F)C(F)(F)C(F)(F)F (centres unmarked) [Example E1, C7 F15 CF(CF3)CONH(CH2)3 N^+ (CH3)2 O^-] .
A. 1.30

Q. Item C[N+](C)([O-])CCCNC(=O)C(F)(C(F)(F)F)C(F)(F)C(F)(F)C(F)(F)C(F)(F)C(F)(F)C(F)(F)C(F)(F)C(F)(F)C(F)(F)C(F)(F)F (centres unmarked) has what recorded log10 of CMC?
A. 2.70

Q. Consider the compound O=C(NCCOC(=O)C(F)(C(F)(F)F)C(F)(F)C(F)(F)C(F)(F)C(F)(F)C(F)(F)C(F)(F)F)c1cc[n+]([O-])cc1 (centres unmarked) and give its measured log10 of CMC.
A. 3.00

Q. I am curious: what log10 of CMC value has been reported for O=C(OCCc1cccc[n+]1[O-])C(F)(C(F)(F)F)C(F)(F)C(F)(F)C(F)(F)C(F)(F)C(F)(F)C(F)(F)F (centres unmarked) ?
A. 3.90

Q. // query log10 of CMC value for entry C[N+](C)([O-])CCCN(CCO)C(=O)C(F)(C(F)(F)F)C(F)(F)C(F)(F)C(F)(F)C(F)(F)C(F)(F)C(F)(F)C(F)(F)F (centres unmarked)
A. 2.10

###

# Test Method Notes: Surface tension and critical micelle concentration of aqueous surfactant solutions
# Assay type: physicochemical
# Experimental Setup: Table 3; deionized water
Measured Parameter: log10 of CMC (log10 of the value in ppm)
Friendly reminder: values = log10 of CMC, unit ppm.

Q. // returns reported log10 of CMC for input C[N+](C)(CCO)CCCNC(=O)C(F)(C(F)(F)F)C(F)(F)C(F)(F)C(F)(F)C(F)(F)C(F)(F)F (stereo not drawn) [Example F3]
A. 3.00

Q. Need log10 of CMC, item C[N+](C)([O-])CCCNC(=O)C(F)(C(F)(F)F)C(F)(F)C(F)(F)C(F)(F)C(F)(F)C(F)(F)C(F)(F)C(F)(F)C(F)(F)F (stereo not drawn) [Example E4, C8 F17 CF(CF3)CONH(CH2)3 N^+ (CH3)2 O^-]
A. 1.30

Q. Please give the measured log10 of CMC for this molecule: O=C(OCCc1cccc[n+]1[O-])C(F)(C(F)(F)F)C(F)(F)C(F)(F)C(F)(F)C(F)(F)C(F)(F)C(F)(F)C(F)(F)F (stereo not drawn) [Example E13]
A. 3.78

Q. Query: log10 of CMC; subject: C[n+]1ccc(C(=O)NCCOC(=O)C(F)(C(F)(F)F)C(F)(F)C(F)(F)C(F)(F)C(F)(F)C(F)(F)C(F)(F)F)cc1 (stereo not drawn) [Example F2]
A. 1.48

Q. Recorded log10 of CMC for CN(C)CCCN(CCCN(C)C)C(=O)C(F)(C(F)(F)F)C(F)(F)C(F)(F)C(F)(F)C(F)(F)C(F)(F)C(F)(F)C(F)(F)F (stereo not drawn) [Example F9] , please?
A. 3.00

Q. Given the molecule O=C(NCCOC(=O)C(F)(C(F)(F)F)C(F)(F)C(F)(F)C(F)(F)C(F)(F)C(F)(F)C(F)(F)C(F)(F)F)c1cc[n+]([O-])cc1 (stereo not drawn) [Example E10] , what is its reported log10 of CMC?
A. 2.60

###

# Test Method Notes: Thermogravimetric analysis of neat perfluorocarboxylate salts
# Format: physicochemical
# Experimental Setup: neat salt, nitrogen, 10° C./min
Catalogue of Temperature for: Onset values
Kindly answer with a numeric value in °C, unit omitted.

[
  {
    "Compound": "O=C(O)C(F)(C(F)(F)C(F)(F)F)C(F)(F)C(F)(F)C(F)(F)C(F)(F)C(F)(F)C(F)(F)F (stereo not shown)",
    "Unit Abbrev": "°C",
    "Observed Measurement": 153
  },
  {
    "Compound": "O=C(O)C(F)(C(F)(F)F)C(F)(F)C(F)(F)C(F)(F)C(F)(F)C(F)(F)C(F)(F)C(F)(F)C(F)(F)F (stereo not shown)",
    "Unit Abbrev": "°C",
    "Observed Measurement": 142
  },
  {
    "Compound": "O=C(O)C(F)(F)C(F)(F)C(F)(F)C(F)(F)C(F)(F)C(F)(F)C(F)(F)F",
    "Unit Abbrev": "°C",
    "Observed Measurement": 173
  },
  {
    "Compound": "O=C(O)C(F)(C(F)(F)F)C(F)(F)C(F)(F)C(F)(F)C(F)(F)C(F)(F)C(F)(F)C(F)(F)F (stereo not shown)",
    "Unit Abbrev": "°C",
    "Observed Measurement": 151
  }
]

Q. Need Temperature for: Onset, item O=C(O)C1(F)C(F)(F)C(F)(F)C(F)(F)C(F)(F)C1(F)F [U.S. Pat. No. 2,567,011, reference compound]
A. 100

Q. # input compound: O=C(O)C(F)(C(F)(F)F)C(F)(F)C(F)(F)C(F)(F)C(F)(F)C(F)(F)C(F)(F)C(F)(F)C(F)(F)C(F)(F)C(F)(F)F (stereo not shown) ; wanted: its Temperature for: Onset
A. 164

Q. Consider the compound O=C(O)C(F)(C(F)(F)F)C(F)(F)C(F)(F)C(F)(F)C(F)(F)C(F)(F)C(F)(F)F (stereo not shown) and give its measured Temperature for: Onset.
A. 165

###

# Test Method Notes: Surface tension and critical micelle concentration of aqueous surfactant solutions
# Assay type: physicochemical
# Experimental Setup: Table 5; deionized water
# Procedure: Critical Micelle Concentration (CMC): The critical micelle concentration is defined as the concentration at which further surface tension is no longer lowered with increasing levels of surfactant. To determine CMC, surface tension is measured as a function of surfactant concentration using a K-12 Processor Tensiometer in conjunction with a 665 Dosimat automatic surfactant injection device (also commercially available from Kruss GmbH). […]
Measured Parameter: CMC

[
  {
    "Compound": "O=C(O)C(F)(C(F)(F)F)C(F)(F)C(F)(F)C(F)(F)C(F)(F)C(F)(F)C(F)(F)C(F)(F)F (stereo not drawn) [Example M27, C7 F15 CF(CF3)COO^- Li^+]",
    "CMC": "3500 ppm"
  },
  {
    "Compound": "O=C(O)C(F)(C(F)(F)F)C(F)(F)C(F)(F)C(F)(F)C(F)(F)C(F)(F)F (stereo not drawn) [Example M21, C5 F11 CF(CF3)COO^- K^+]",
    "CMC": "> 10000 ppm"
  }
]

Turning now to a further compound:
Q. Looking for the measured CMC of O=C(O)C(F)(C(F)(F)F)C(F)(F)C(F)(F)C(F)(F)C(F)(F)C(F)(F)F (stereo not drawn) [Example M15, C5 F11 CF(CF3)COO^- H4 N^+] , can you help?
A. > 10000 ppm

Recorded values, source patent US5998521A.
